- protocolDetails: qHTS assay to identify small molecule agonists of the NFkB signaling pathway - cell viability counter screen (AID 1159515); also: nearly all actives have a fitted effect of over 55% in size
- runParameters: NFkB-bla ME-180 viability, CellTiter-Glo luminescence, 5 h; series mostly up to 61 µM
Results filed as inconclusive are left out. Calls of active or inactive are those of the source. Calls follow the shape of the full dose curve.
assayReadout: activity, negative = cytotoxic

The cases that follow already have their activity, negative = cytotoxic on record.
>  <compound>
CCCCC(CC)C(=O)OCCOCCOCCOCCOC(=O)C(CC)CCCC (stereo not given)

>  <reported>
inactive

$$$$
>  <compound>
CC1(C)O[C@@H]2C[C@H]3[C@@H]4CCC5=CC(=O)C=C[C@]5(C)[C@H]4[C@@H](O)C[C@]3(C)[C@]2(C(=O)CO)O1

>  <reported>
inactive

$$$$
>  <compound>
N#C/C(=C1/SC[C@@H](c2ccc(Cl)cc2Cl)S1)n1ccnc1

>  <reported>
inactive

$$$$
>  <compound>
Cc1cc(S(=O)(=O)O)ccc1N=Nc1c(O)ccc2ccccc12

>  <reported>
inactive

$$$$

Next, consider the following compound.
Query block: Consider the compound `O=C(CCCN1CCC(O)(c2ccc(Br)cc2)CC1)c1ccc(F)cc1` and give its measured activity, negative = cytotoxic.
Result block: inactive

---

- protocolDetails: qHTS assay to identify small molecule antagonists of the estrogen related receptor (ERR) signaling pathway from Tox21 library - cell viability counter screen (AID 1224834); also: nearly all actives have a fitted effect of over 30% in size
- runParameters: ERR reporter cells viability, CellTiter-Fluor, 17.5 h; series mostly up to 92.4 µM
Records with an inconclusive call do not appear. The source made the active and inactive calls. The call rests on the fitted dose curve; in most records, active means well fitted cell-killing curve with a large enough effect in the repeat runs; inconclusive means weak or mixed curves; inactive means flat fitted curve, though single readings scatter.
Write down one outcome, taken from active, inactive

>  <compound>
CCOC(=O)c1ccccc1C

>  <class>
inactive

$$$$
>  <compound>
CCCCC(CC)C(=O)OCCOCCOCCOCCOC(=O)C(CC)CCCC (stereo unspecified)

>  <class>
inactive

$$$$
>  <compound>
CC(=O)Oc1ccc(C(=C2CCCCC2)c2ccc(OC(C)=O)cc2)cc1

>  <class>
inactive

$$$$
>  <compound>
Nc1nccs1

>  <class>
inactive

$$$$
>  <compound>
CN1CCCN=C1/C=C/c1cccs1

>  <class>
inactive

$$$$
>  <compound>
O=C(O)c1ccc(CO)o1

>  <class>
inactive

$$$$

Query block: Just curious, what result did `CCN(CC)CCNC(=O)c1ccc(NC(C)=O)cc1` get here?
Result block: inactive

Query block: Just curious, what result did `C=CCNc1nc(NCC=C)nc(N2CCN(C(c3ccc(F)cc3)c3ccc(F)cc3)CC2)n1` get here?
Result block: inactive

---

- protocolDetails: qHTS assay to identify small molecule agonists of the vitamin D receptor (VDR) signaling pathway - cell viability counter screen (AID 743224); also: nearly all actives have a fitted effect of over 50% in size
- runParameters: VDR-bla HEK293T viability, CellTiter-Glo luminescence, 16 h; series mostly up to 62.6 µM
Records with an inconclusive call do not appear. Active and inactive are the calls of the source. Calls come from the whole dose curve; as a rule, active = well fitted cell-killing curve with a large enough effect in the repeat runs; inconclusive = weak or mixed curves, or effect the other way; inactive = no such curve, though single readings can be large or run the other way.
Write down one outcome, taken from true for active, false for inactive

These solved cases illustrate the format of a correct answer.
>  <smilesCode>
NC(=O)N(O)[C@@H]1C=C[C@H](Oc2cccc(Oc3ccc(F)cc3)c2)C1

>  <class>
false

$$$$
>  <smilesCode>
Oc1cc(O)c(Cl)cc1Cl

>  <class>
false

$$$$
>  <smilesCode>
Nc1c(I)cc(I)c(C(=O)N(CCC(=O)O)c2ccccc2)c1I

>  <class>
false

$$$$
>  <smilesCode>
C[N+](C)(C)CCOC(N)=O

>  <class>
false

$$$$
>  <smilesCode>
CCCCN(CCCC)C(=S)SSC(=S)N(CCCC)CCCC

>  <class>
true

$$$$
>  <smilesCode>
O=C(c1ccc(O)cc1)c1ccc(Cl)cc1

>  <class>
false

$$$$
>  <smilesCode>
CCN(Cc1cccc(S(=O)(=O)O)c1)c1ccc(C(=C2C=CC(=[N+](CC)Cc3cccc(S(=O)(=O)[O-])c3)C=C2)c2ccccc2)cc1

>  <class>
false

$$$$
>  <smilesCode>
Nc1nccs1

>  <class>
false

$$$$
>  <smilesCode>
COc1ccc(CCC(=O)c2c(O)cc(O[C@@H]3O[C@H](CO)[C@@H](O)[C@H](O)[C@H]3O[C@@H]3O[C@@H](C)[C@H](O)[C@@H](O)[C@H]3O)cc2O)cc1O

>  <class>
false

$$$$

Could you now look at the following compound, please?
Query block: Just curious, what result did `CC(=O)[C@H]1CC[C@H]2[C@@H]3C[C@H](C)C4=CC(=O)CC[C@]4(C)[C@H]3[C@@H](O)C[C@]12C` get here?
Result block: false
